- EXPERIMENT NOTES: self-splicing fitness, log relative to wild type (ln ratio); higher = more splicing; Tetrahymena group I intron in knt gene, E. coli kanamycin selection, DiMSum; sequences stand for … in CUCUCU…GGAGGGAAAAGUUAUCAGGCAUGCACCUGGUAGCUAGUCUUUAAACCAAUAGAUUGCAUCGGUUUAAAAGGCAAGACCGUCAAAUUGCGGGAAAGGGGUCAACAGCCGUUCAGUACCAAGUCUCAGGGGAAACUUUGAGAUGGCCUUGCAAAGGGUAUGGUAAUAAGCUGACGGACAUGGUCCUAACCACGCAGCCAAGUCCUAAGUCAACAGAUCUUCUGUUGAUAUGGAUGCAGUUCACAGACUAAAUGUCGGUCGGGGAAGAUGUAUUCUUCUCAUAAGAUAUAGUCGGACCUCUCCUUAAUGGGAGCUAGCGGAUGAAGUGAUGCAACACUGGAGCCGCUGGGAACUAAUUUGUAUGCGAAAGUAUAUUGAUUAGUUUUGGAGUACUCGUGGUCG;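 further: selection with 25 µg/mL kanamycin versus none on LB agar overnight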
- SETTINGS: 37 °C
I'd appreciate it if you could supply self-splicing fitness (ln) values for the items below.
Answers are plain numbers.

Sample records with self-splicing fitness (ln):
seq=CUGCAGCAAUAUUACGACAG quantity_name="self-splicing fitness (ln)" data_value=-1.56
seq=CAACAGCAAUAUUACGGAUG quantity_name="self-splicing fitness (ln)" data_value=-0.732
seq=AGCCAGCAAUAUUACGGGAC quantity_name="self-splicing fitness (ln)" data_value=-2.7
seq=AGUAAGCAAUAUUACGUAUA quantity_name="self-splicing fitness (ln)" data_value=-1.97

Provide self-splicing fitness (ln) for all items below, preserving their order.
1. UAUGAGCAAUAUUACGGGCG
2. ACAGAGCAAUAUUACGUAUU

Marked response:
-2.12
-2.84

Provide self-splicing fitness (ln) for all items below, preserving their order.
1. GUCCAGCAAUAUUACGCCUA
2. GCGCAGCAAUAUUACGGUGA

Marked response:
1. -0.244
2. -0.107

====

- EXPERIMENT NOTES: self-splicing fitness, log relative to wild type (ln ratio); higher = more splicing; Tetrahymena group I intron in knt gene, E. coli kanamycin selection, DiMSum; sequences stand for … in CUCUCU…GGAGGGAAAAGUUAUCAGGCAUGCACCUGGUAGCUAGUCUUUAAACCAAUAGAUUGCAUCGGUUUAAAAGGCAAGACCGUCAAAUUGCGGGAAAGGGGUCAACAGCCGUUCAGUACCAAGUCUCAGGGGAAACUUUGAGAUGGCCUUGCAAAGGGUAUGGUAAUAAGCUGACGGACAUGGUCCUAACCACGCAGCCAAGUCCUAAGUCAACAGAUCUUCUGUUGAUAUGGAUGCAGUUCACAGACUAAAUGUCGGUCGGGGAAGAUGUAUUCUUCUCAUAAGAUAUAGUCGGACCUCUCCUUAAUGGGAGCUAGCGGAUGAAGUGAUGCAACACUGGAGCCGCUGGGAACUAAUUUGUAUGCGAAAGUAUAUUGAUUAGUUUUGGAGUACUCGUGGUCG
- SETTINGS: 30 °C
Classify as follows. Reported self-splicing fitness (ln) greater than or equal to -2: Condition met. Reported self-splicing fitness (ln) below: Condition not met.

seq=ACCGAGCAAUAUUACGCGUC assigned_class="Condition not met"
seq=CCAGAGCAAUAUUACGGAUU assigned_class="Condition not met"
seq=CACGAGCAAUAUUACGUUUC assigned_class="Condition not met"
seq=CGCUAGCAAUAUUACGUAAA assigned_class="Condition not met"
seq=UCCAAGCAAUAUUACGAUUG assigned_class="Condition not met"

Exam item: Quick check, self-splicing fitness (ln) >= -2? `UUAAAGCAAUAUUACGACCA`
Marked response: Condition met

Exam item: Quick check, self-splicing fitness (ln) >= -2? `GACCAGCAAUAUUACGUGAU`
Marked response: Condition met

Exam item: Quick check, self-splicing fitness (ln) >= -2? `CCUCAGCAAUAUUACGGUCA`
Marked response: Condition not met

Exam item: Quick check, self-splicing fitness (ln) >= -2? `GUCUAGCAAUAUUACGUGUG`
Marked response: Condition met

====

- EXPERIMENT NOTES: self-splicing fitness, log relative to wild type (ln ratio); higher = more splicing; Tetrahymena group I intron in knt gene, E. coli kanamycin selection, DiMSum; sequences stand for … in CUCUCU…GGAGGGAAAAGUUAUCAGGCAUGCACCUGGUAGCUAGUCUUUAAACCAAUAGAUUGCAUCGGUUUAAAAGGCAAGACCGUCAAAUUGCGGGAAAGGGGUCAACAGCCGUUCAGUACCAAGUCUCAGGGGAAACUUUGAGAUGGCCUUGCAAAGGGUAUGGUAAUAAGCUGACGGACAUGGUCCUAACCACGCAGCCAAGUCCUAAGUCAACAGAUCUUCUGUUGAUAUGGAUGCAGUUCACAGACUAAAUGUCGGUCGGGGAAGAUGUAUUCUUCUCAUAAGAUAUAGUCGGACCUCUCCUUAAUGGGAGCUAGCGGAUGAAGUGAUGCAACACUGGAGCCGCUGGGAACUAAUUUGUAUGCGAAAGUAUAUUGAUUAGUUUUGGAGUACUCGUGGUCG
- SETTINGS: 37 °C
QUANTITY NAME: self-splicing fitness (ln)
Answers are plain numbers.

Provide self-splicing fitness (ln) for all items below, preserving their order.
1. UUUAAGCAAUAUUACGUGGA
2. CGCAAGCAAUAUUACGUGCG
3. UGAAAGCAAUAUUACGGGGU
4. UCCCAGCAAUAUUACGAGGG
5. GGGCAGCAAUAUUACGUCGG
6. GGCUAGCAAUAUUACGGAGU
7. GCGAAGCAAUAUUACGAAAU

Marked response:
1. -1.56
2. -2.23
3. -2.48
4. -3.02
5. 0.392
6. -2.02
7. -1.07

Provide self-splicing fitness (ln) for all items below, preserving their order.
1. CUCGAGCAAUAUUACGUCAC
2. UCCCAGCAAUAUUACGGCCG
3. GAUAAGCAAUAUUACGCUCA
4. GCCUAGCAAUAUUACGAGAA
5. AGGCAGCAAUAUUACGUAAU

Marked response:
-1.11
-2.02
0.0635
-1.26
-0.867

====

- EXPERIMENT NOTES: self-splicing fitness, log relative to wild type (ln ratio); higher = more splicing; Tetrahymena group I intron in knt gene, E. coli kanamycin selection, DiMSum; sequences stand for … in CUCUCU…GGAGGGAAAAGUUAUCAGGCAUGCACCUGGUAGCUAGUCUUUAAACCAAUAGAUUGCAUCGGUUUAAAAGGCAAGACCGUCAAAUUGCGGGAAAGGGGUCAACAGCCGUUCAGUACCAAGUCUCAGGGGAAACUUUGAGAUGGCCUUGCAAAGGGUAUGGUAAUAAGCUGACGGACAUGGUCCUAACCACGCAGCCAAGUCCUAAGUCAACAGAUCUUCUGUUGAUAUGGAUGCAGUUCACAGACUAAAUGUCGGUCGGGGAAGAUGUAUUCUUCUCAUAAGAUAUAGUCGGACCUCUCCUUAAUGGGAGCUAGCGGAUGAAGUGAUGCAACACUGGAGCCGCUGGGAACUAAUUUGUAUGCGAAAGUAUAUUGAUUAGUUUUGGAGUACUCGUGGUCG
- SETTINGS: 37 °C
QUANTITY NAME: self-splicing fitness (ln)
Numbers only.

Sample records with self-splicing fitness (ln):
seq=AAACAGCAAUAUUACGGCCU quantity_name="self-splicing fitness (ln)" data_value=-0.591
seq=AGUAAGCAAUAUUACGUCUU quantity_name="self-splicing fitness (ln)" data_value=-0.0602

Provide self-splicing fitness (ln) for all items below, preserving their order.
1. GGCCAGCAAUAUUACGAAAA
2. AUGGAGCAAUAUUACGUCAU
3. CCAAAGCAAUAUUACGCUUA
4. GCAAAGCAAUAUUACGAUCA
5. CCGUAGCAAUAUUACGUACU
6. GUUCAGCAAUAUUACGACGG

Marked response:
-2.23
-1.33
-3.12
-0.882
-2.03
-3.24

Provide self-splicing fitness (ln) for all items below, preserving their order.
1. GCCGAGCAAUAUUACGCAGA
2. GUUGAGCAAUAUUACGUCGC
3. GUGAAGCAAUAUUACGGGGC

Marked response:
-2.39
-1.17
-3.35

====

- EXPERIMENT NOTES: self-splicing fitness, log relative to wild type (ln ratio); higher = more splicing; Tetrahymena group I intron in knt gene, E. coli kanamycin selection, DiMSum; sequences stand for … in CUCUCU…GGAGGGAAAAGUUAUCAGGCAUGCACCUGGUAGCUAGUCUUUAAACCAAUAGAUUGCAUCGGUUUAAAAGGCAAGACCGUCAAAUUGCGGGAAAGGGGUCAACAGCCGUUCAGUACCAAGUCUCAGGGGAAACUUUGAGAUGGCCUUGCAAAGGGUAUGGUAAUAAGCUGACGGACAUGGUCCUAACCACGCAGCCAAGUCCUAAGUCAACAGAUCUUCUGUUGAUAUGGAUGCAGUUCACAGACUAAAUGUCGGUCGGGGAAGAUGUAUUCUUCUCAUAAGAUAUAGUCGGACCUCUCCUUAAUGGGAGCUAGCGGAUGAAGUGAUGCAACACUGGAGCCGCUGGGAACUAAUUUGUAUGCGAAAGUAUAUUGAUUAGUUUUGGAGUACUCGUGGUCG
- SETTINGS: 37 °C
Classify as follows. Reported self-splicing fitness (ln) greater than or equal to -2: fulfilled. Reported self-splicing fitness (ln) below: not fulfilled.

Example cases with answers are listed next.
seq=UAUAAGCAAUAUUACGGUUU assigned_class=fulfilled
seq=GCAGAGCAAUAUUACGUGUA assigned_class=fulfilled
seq=CACAAGCAAUAUUACGUAAC assigned_class=fulfilled
seq=CGCCAGCAAUAUUACGAAAC assigned_class=fulfilled
seq=AUAGAGCAAUAUUACGUAUG assigned_class=fulfilled

Exam item: Quick check, self-splicing fitness (ln) >= -2? `AGGUAGCAAUAUUACGGUCA`
Marked response: fulfilled

Exam item: Quick check, self-splicing fitness (ln) >= -2? `UUCUAGCAAUAUUACGCUCG`
Marked response: not fulfilled

Exam item: Quick check, self-splicing fitness (ln) >= -2? `AUUGAGCAAUAUUACGUGUG`
Marked response: not fulfilled

Provenance of the data: the supplement of paper PMC7877785
